# IC50 annotations
Target: human cholecystokinin-2 receptor (CCK-2R) (Homo sapiens, UniProt P32239)
Construct: host or cells: 1321-N1 cells (plasma membranes prepared by Evotec AG Hamburg)
Sequence (P32239 whole entry): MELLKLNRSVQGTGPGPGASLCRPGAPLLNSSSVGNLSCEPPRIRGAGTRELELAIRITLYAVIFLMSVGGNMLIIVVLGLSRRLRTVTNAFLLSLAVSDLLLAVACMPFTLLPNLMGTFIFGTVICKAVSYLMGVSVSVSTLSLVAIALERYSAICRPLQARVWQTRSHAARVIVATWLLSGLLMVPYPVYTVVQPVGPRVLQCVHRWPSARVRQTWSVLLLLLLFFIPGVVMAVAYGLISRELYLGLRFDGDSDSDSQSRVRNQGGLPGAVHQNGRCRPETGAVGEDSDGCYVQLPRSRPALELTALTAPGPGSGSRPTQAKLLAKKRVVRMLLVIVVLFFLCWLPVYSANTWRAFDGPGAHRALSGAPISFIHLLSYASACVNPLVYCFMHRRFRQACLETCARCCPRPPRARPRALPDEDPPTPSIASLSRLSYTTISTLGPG
Test: In vitro receptor binding to CCK-2R, SPA displacement of [125I]-CCK-8s from plasma membranes
Conditions: displacement of [125I]-CCK-8s, plasma membranes of 1321-N1 cells expressing CCK-2R; highest dose tested 1×10^7 pM; read-out: IC50 (CCK-2R)
Procedure: The in vitro binding affinity is a measure of the strength of attraction between a receptor and its ligand. Displacement of radio ligand was measured as reduction in light emission from SPA beads. […] A minimum of three biological replicates was measured for each test compound on separate assay plates.
Starred links: 1 amine or outer side, 2 acyl side, 3 side chain; linkers in the order of their positions; H or OH if unused. Non-standard residues stand in square brackets, D forms with d. Residues, ends and D or L forms follow the SMILES beside them. *: point of attachment. Phe(4-CH2SO3H) = N[C@@H](Cc1ccc(CS(=O)(=O)O)cc1)C(=O)O; sY = N[C@@H](Cc1ccc(OS(=O)(=O)O)cc1)C(=O)O; C18 diacid = O=C(O)CCCCCCCCCCCCCCCCC(=O)*; γGlu = O=C(O)[C@H](CCC(=O)[*:2])N[*:1]; 1Nal = N[C@@H](Cc1cccc2ccccc12)C(=O)O; NMeF = CN[C@@H](Cc1ccccc1)C(=O)O; dNMeD = CN[C@H](CC(=O)O)C(=O)O; Nle = CCCC[C@H](N)C(=O)O; AEEA = NCCOCCOCC(=O)O

Example results:
>  <Molecule>
CCCC[C@H](NC(=O)[C@H](Cc1ccc(OS(=O)(=O)O)cc1)NC(=O)[C@H](CC(=O)O)NC(=O)COCCOCCNC(=O)COCCOCCNC(=O)CC[C@H](NC(=O)CCCCCCCCCCCCCCCCC(=O)O)C(=O)O)C(=O)NCC(=O)N[C@@H](Cc1c[nH]c2ccccc12)C(=O)N[C@@H](CCCC)C(=O)N(C)[C@H](CC(=O)O)C(=O)N[C@@H](Cc1cccc2ccccc12)C(N)=O [Example 2] ({C18 diacid-γGlu-AEEA-AEEA}-D[sY][Nle]GW[Nle][dNMeD][1Nal]-NH2)

>  <Recorded value>
1 µM

$$$$
>  <Molecule>
CCCC[C@H](NC(=O)[C@H](Cc1ccc(CS(=O)(=O)O)cc1)NC(=O)[C@@H](CC(=O)O)NC(=O)COCCOCCNC(=O)COCCOCCNC(=O)CC[C@H](NC(=O)CCCCCCCCCCCCCCCCC(=O)O)C(=O)O)C(=O)NCC(=O)N[C@@H](Cc1c[nH]c2ccccc12)C(=O)N[C@@H](CCCC)C(=O)N(C)[C@H](CC(=O)O)C(=O)N(C)[C@@H](Cc1ccccc1)C(N)=O [Example 25] ({C18 diacid-γGlu-AEEA-AEEA}-[dD][Phe(4-CH2SO3H)][Nle]GW[Nle][dNMeD][NMeF]-NH2)

>  <Recorded value>
> 10 µM

$$$$

Give its IC50 value. Item: CCCC[C@H](NC(=O)[C@H](Cc1c[nH]c2ccccc12)NC(=O)CNC(=O)[C@H](CC(C)C)NC(=O)[C@H](Cc1ccc(OS(=O)(=O)O)cc1)NC(=O)[C@@H](N)CCC(=O)O)C(=O)N(C)[C@H](CC(=O)O)C(=O)N(C)[C@@H](Cc1ccccc1)C(N)=O [Example 77] (H-E[sY]LGW[Nle][dNMeD][NMeF]-NH2)
> 10 µM

Values compiled from patent US20170008928A1.
